System Under Test: Amine oxidase [flavin-containing] B (Rattus norvegicus)
Sequence (P19643 whole entry): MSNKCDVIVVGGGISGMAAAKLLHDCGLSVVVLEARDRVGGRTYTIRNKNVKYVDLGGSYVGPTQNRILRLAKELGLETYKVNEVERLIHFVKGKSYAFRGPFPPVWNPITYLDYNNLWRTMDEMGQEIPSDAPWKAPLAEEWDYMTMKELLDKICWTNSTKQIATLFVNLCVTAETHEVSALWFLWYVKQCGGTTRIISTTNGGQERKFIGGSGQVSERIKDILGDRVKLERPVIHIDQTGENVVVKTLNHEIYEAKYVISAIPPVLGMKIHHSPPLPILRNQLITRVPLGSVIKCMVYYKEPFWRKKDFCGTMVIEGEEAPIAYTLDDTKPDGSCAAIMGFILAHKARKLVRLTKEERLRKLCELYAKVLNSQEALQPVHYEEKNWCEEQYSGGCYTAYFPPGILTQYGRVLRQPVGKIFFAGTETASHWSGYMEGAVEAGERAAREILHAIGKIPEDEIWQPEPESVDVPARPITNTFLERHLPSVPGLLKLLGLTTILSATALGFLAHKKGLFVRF
Assay Method Text: Inhibition of MAO-B in rat liver homogenate preincubated for 30 mins
Assay type: tissue-based
Reported Property: pIC50
Just the number, please; pIC50 means minus log10 of the concentration in mol/L.

Input line: Fill in the recorded pIC50 for this compound, with Amine oxidase [flavin-containing] B (Rattus norvegicus) as test system: C#CCN(Cc1ccc(O)c2ncccc12)C(C#N)CCC1CCN(Cc2ccccc2)CC1 (racemic)
Output line: 5.08
